Target: CYP1A1 (Mus musculus)
Assay: Induction of CYP1A1 activity in mouse Hepa-1c1c7 cells assessed as induction ratio at 2.5 uM after 48 hrs by EROD assay relative to control
Format: ADME, cell-based
fold induction at 48 h, 2.5 µM reference

O=C1Nc2ccccc2/C1=C\c1ccc(F)cc1Cl
1.2
COc1ccc(/C=C2/C(=O)Nc3ccccc32)c(O)c1
2.35

Input "O=C1Nc2ccccc2/C1=C\c1ccc2ccccc2c1" , output reported fold induction at 48 h, 2.5 µM.
1.06

Supply fold induction at 48 h, 2.5 µM value. Item: "COc1cccc(/C=C2/C(=O)Nc3ccc(Cl)cc32)c1"
1.32

For "O=C1Nc2ccccc2/C1=C\c1ccc(Cl)cc1" , write its fold induction at 48 h, 2.5 µM.
1.06

* * *

Target: NAD(P)H dehydrogenase [quinone] 1 (Mus musculus) (UniProt Q64669)
Sequence (Q64669 whole entry): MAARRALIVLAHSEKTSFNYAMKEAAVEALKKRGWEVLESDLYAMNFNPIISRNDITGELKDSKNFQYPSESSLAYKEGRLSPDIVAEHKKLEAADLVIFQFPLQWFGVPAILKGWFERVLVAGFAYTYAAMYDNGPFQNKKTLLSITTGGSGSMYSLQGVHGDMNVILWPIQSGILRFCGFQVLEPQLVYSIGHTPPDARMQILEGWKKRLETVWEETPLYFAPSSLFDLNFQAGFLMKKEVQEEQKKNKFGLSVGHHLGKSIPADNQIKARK
Assay: Induction of NQO1 activity in mouse Hepa-1c1c7 cells assessed as induction ratio at 0.5 uM after 48 hrs by MTT assay relative to control
Format: cell-based
Ratio of 4 or higher: y. Under 4: n.

COc1ccc2c(c1)NC(=O)/C2=C/c1cccc(C(F)(F)F)c1
y
COc1ccc(/C=C2/C(=O)Nc3ccccc32)cc1O
n
COc1cccc(/C=C2/C(=O)Nc3cc(OC)ccc32)c1
n

// switching to the query compound
State whether the measured Ratio reaches 4, counting equality as reaching it, for "O=C1Nc2ccccc2/C1=C\c1cccc(Cl)c1"
y

* * *

Test system: MCF7
Assay: Antiproliferative activity against human MCF7 cells after 72 hrs by MTT assay
Format: functional, cell-based
Details: MCF7, 72 h
Mark yes (1) for IC50 under 6 µM, no (0) if at or over.

Check out these entries, answers already filled in.
COc1ccc(OC)c(/C=C2/C(=O)Nc3ccccc32)c1
no (0)
O=C1Nc2cc(Cl)ccc2/C1=C\c1cccc(C(F)(F)F)c1
no (0)
COc1ccc2c(c1)NC(=O)/C2=C/c1ccc(OC)c(O)c1
no (0)
COc1cc(/C=C2/C(=O)Nc3ccccc32)cc(OC)c1
no (0)
COc1cccc(/C=C2/C(=O)Nc3cc(OC)ccc32)c1
yes (1)

Field: next compound
Could you please tell me whether IC50 recorded for "COc1ccc2c(c1)NC(=O)/C2=C/c1cccc(C(F)(F)F)c1" is less than 6 µM?
yes (1)

* * *

Target: UniProtKB Q64669
Experiment: Induction of NQO1 activity in mouse Hepa-1c1c7 cells assessed as induction ratio at 20 uM after 48 hrs by MTT assay relative to control
Type: cell-based
Below, each entry is listed alongside its reported Ratio.
Returns: the value as a bare number; no unit string appended.

Illustrative cases are given below, each with its answer.
O=C1Nc2ccccc2/C1=C\c1cc(O)cc(O)c1
3.82
O=C1Nc2ccccc2/C1=C\c1ccncc1
2.08
O=C1Nc2ccccc2/C1=C\c1ccc(F)cc1
5.69
O=C1Nc2ccccc2/C1=C\c1ccccc1O
3.35
O=C1Nc2ccccc2/C1=C\c1ccccc1C(F)(F)F
2.96

Next, consider the following compound.
Report measured Ratio; entry is COc1cccc(CC2C(=O)Nc3ccccc32)c1 (stereo unspecified)
2.23

* * *

System: HCT-116
Assay: Cell cycle arrest in human HCT116 cells released from G1 block assessed as accumulation at G2/M phase at 15 uM after 24 hrs by flow cytometry
Format: functional
Activity vs 20%: less than gives T; not less than gives F.

Known results for compounds:
O=C1Nc2ccccc2/C1=C\c1cccc(Oc2ccccc2)c1
T
O=C1Nc2cc(Cl)ccc2/C1=C\c1cccc(C(F)(F)F)c1
T
COc1ccc2c(c1)NC(=O)/C2=C/c1ccc(OC)c(O)c1
F
COc1cc(/C=C2/C(=O)Nc3ccccc32)cc(OC)c1OC
T

Now look at this one.
hey, is Activity for "O=C1Nc2cc(F)ccc2/C1=C\c1cccc(C(F)(F)F)c1" lower than 20% or not?
T

* * *

Target: CYP1A1 (Mus musculus, UniProt P00184)
Assay: Induction of CYP1A1 activity in mouse Hepa-1c1c7 cells assessed as induction ratio at 20 uM after 48 hrs by EROD assay relative to control
Format: ADME, cell-based
Reported property: fold induction at 48 h, 20 µM
Write the value as a bare number.

O=C1Nc2ccccc2/C1=C\c1ccccc1O
1.02
O=C1Nc2ccccc2/C1=C\c1ccncc1
1.01
COc1cccc(CC2C(=O)Nc3ccccc32)c1 (stereo unspecified)
1.78
O=C1Nc2ccccc2/C1=C\c1ccccc1C(F)(F)F
1.2
O=C1Nc2ccccc2/C1=C\c1cc(O)cc(O)c1
1.04

Attention now turns to another entry.
Output fold induction at 48 h, 20 µM of "O=C1Nc2ccccc2/C1=C\c1ccc(F)cc1"
1.64

* * *

The compounds listed here are annotated with their IC50.
Experiment: Cytotoxicity against mouse Hepa-1c1c7 cells after 48 hrs by MTT assay
Assay type: cell-based
Settings: hepa-1c1c7, 48 h
Your answer is read as µM, so omit the unit and give the number.

Below, each entry is followed by its recorded IC50 result.
COc1cccc(/C=C2\Nc3ccccc3C2=O)c1
21.2
COc1ccc(/C=C2/C(=O)N(C)c3ccccc32)cc1O
15.5
COc1cc(/C=C2/C(=O)Nc3ccccc32)ccc1O
14.6
COc1cc(/C=C2/C(=O)Nc3ccccc32)cc(OC)c1
16
COc1ccc2c(c1)NC(=O)/C2=C/c1cccc(C(F)(F)F)c1
2.6

Give recorded IC50. "COc1ccc(/C=C2/C(=O)Nc3cc(F)ccc32)cc1O"
15.6

* * *

Target: CYP1A1 (Mus musculus, UniProt P00184)
Sequence (P00184 whole entry): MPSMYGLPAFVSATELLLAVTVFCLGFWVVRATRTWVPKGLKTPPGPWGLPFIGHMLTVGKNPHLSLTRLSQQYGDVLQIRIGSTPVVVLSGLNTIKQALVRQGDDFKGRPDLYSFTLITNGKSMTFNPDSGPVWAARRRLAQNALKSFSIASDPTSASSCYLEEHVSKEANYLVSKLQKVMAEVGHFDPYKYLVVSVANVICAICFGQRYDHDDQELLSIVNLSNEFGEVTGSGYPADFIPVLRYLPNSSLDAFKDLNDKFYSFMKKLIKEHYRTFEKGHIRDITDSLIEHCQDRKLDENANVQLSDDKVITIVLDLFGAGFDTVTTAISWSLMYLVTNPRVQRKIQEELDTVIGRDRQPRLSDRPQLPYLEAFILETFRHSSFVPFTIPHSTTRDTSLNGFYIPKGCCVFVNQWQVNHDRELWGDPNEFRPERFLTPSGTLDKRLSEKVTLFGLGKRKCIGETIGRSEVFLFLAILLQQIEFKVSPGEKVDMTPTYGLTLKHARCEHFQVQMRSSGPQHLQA
Test: Induction of CYP1A1 activity in mouse Hepa-1c1c7 cells assessed as induction ratio at 7.5 uM after 48 hrs by EROD assay relative to control
Format: ADME, cell-based
Reported property: fold induction at 48 h, 7.5 µM

COc1ccc(/C=C2\Nc3ccccc3C2=O)cc1O
1.38
CCc1ccc(/C=C2/C(=O)Nc3ccccc32)cc1
1.08
O=C1Nc2ccccc2/C1=C\c1cccc(Oc2ccccc2)c1
1.08
Cc1ccc(/C=C2/C(=O)Nc3ccccc32)cc1
1.07

Answer with the recorded fold induction at 48 h, 7.5 µM for the compound listed here: "O=C1Nc2ccccc2/C1=C\c1cccc(F)c1"
1.11

* * *

Target: CYP1A1 (Mus musculus, UniProt P00184)
Test: Induction of CYP1A1 activity in mouse Hepa-1c1c7 cells assessed as induction ratio at 15 uM by EROD assay relative to control
Format: ADME, cell-based
Reported property: fold induction at 15 µM

Return fold induction at 15 µM (reported value) for this compound: "O=C1Nc2ccccc2/C1=C\c1ccc(F)cc1F"
1.89

* * *

Target: CYP1A1 (Mus musculus, UniProt P00184)
Experiment: Induction of CYP1A1 activity in mouse Hepa-1c1c7 cells assessed as induction ratio at 5 nM after 48 hrs by EROD assay relative to control
Type: ADME, cell-based
Criterion: fold induction at 48 h, 0.005 µM meeting or surpassing 3. Met: fulfilled. Not met: not fulfilled.

O=C1Nc2cc(C(F)(F)F)ccc2/C1=C1\C(=O)Nc2ccc(F)cc21
fulfilled
O=C1Nc2cc(C(F)(F)F)ccc2/C1=C1\C(=O)Nc2ccc(Cl)cc21
fulfilled
O=C1Nc2ccccc2/C1=C1\C(=O)Nc2cc(F)ccc21
not fulfilled

Entry "O=C1Nc2ccccc2/C1=C1\C(=O)Nc2ccc(Cl)cc21" : is its fold induction at 48 h, 0.005 µM no less than 3?
not fulfilled

* * *

Target: NAD(P)H dehydrogenase [quinone] 1 (Mus musculus) (UniProt Q64669)
Assay: Induction of NQO1 activity in mouse Hepa-1c1c7 cells assessed as induction ratio at 1 uM after 48 hrs by MTT assay relative to control
Format: cell-based
Output True for Ratio not less than 4; output False otherwise.

Please check the record "COc1ccc2c(c1)NC(=O)/C2=C/c1ccc(OC)c(O)c1" and state if its Ratio is at or above 4.
True

Form field: Ratio at least 4? Entry: "COc1ccc(/C=C2/C(=O)Nc3cc(Cl)ccc32)cc1O"
True

Kindly determine if Ratio recorded for "O=C1Nc2ccccc2/C1=C\c1c[nH]c2ccccc12" is above or exactly 4.
True

Could you verify whether the entry "COc1cccc(/C=C2/C(=O)Nc3cc(F)ccc32)c1" shows Ratio of no less than 4?
False

State whether the measured Ratio reaches 4, counting equality as reaching it, for "COc1cccc(/C=C2/C(=O)Nc3ccccc32)c1"
True
